These data points were gathered from paper PMC9605988.

Examples of binders with documented Kd follow.
- Assay Target: T1, preformed AF488-Bub1^CD1:Mad1^CTD complex (Mad1^CTD unphosphorylated) (UniProt Q9Y6D9 597-718, Aurora Fluor 488 (AF488) on the N-terminal Cys; phosphoserine (pSer459); phosphothreonine (pThr461))
- T1 construct: Mad1 C-terminal domain (Mad1^CTD), residues 597-718; as m1; added N-terminal Cys (carries AF488) and Trp; as m7; Bub1 conserved domain 1 (CD1) peptide; also called Mad1^CTD:AF488-Bub1^CD1 complex; source: mixed from purified Mad1^CTD and synthetic peptide (20 nM: 2.1 µM); copies: 2 + 1
- T1 sequence 1: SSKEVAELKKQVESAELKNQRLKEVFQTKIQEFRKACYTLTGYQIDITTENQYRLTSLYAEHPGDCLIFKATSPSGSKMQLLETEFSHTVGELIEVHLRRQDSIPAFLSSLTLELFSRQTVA
- T1 sequence 2: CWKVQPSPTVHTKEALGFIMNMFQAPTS
- Experimental Details: fluorescence polarisation; fluorescence anisotropy; Cdc20^N twofold series (100 μM to 6 nM, mixed 1:1) titrated into preformed AF488-Bub1^CD1:Mad1^CTD (20 nM: 2.1 µM); 25 mM HEPES pH 7.75, 1 mM TCEP, 100 mM NaCl, 0.05% Tween-20; 25 °C
- Measurement Setup: both partners purified
Measured Quantity: Kd (µM)

>  <Binder>
Cdc20^N RRK/SSS mutant (Arg27, Arg30, Lys31 to Ser) (domain or fragment, human, UniProt Q12834 1-73, looked up, human Cdc20, residues 1-73; The purification (with tag cleavage) is told for Cdc20^N; likely the same for the mutant; source: site-directed mutant of the Cdc20^N construct, purified) MAQFAFESDLHSLLQLDAPIPNAPPASWQSSAKEAAGPAPSPMRAANRSHSAGRTPGRTPGKSSSKVQTTPSK

>  <Measured Quantity>
Kd

>  <Measured Result>
18

$$$$
>  <Binder>
Cdc20^N (N-terminal truncation of Cdc20, residues 1-73) (domain or fragment, human, UniProt Q12834 1-73, looked up, human Cdc20, residues 1-73; also called Cdc20^1–73; wild-type Cdc20^N; source: E. coli Rosetta 2 (DE3), purified (TALON, TEV cleavage, HisTrap, Resource S, Superdex 75); not shown: His6, N-terminal, cleaved; MBP, N-terminal, cleaved) MAQFAFESDLHSLLQLDAPIPNAPPARWQRKAKEAAGPAPSPMRAANRSHSAGRTPGRTPGKSSSKVQTTPSK

>  <Measured Quantity>
Kd

>  <Measured Result>
28.1

$$$$
